# Tested on: SNB-75
# Method Notes: NCI tumour cell line growth inhibition, 48 h
Activity calls are given as the source filed them. Rule as the data show it: active = GI50 up to about 1.1 µM and inactive = higher.
Select the correct class. Options are active, inactive and nothing else.

Task: Field: outcome | Entry: Clc1ccc(Cc2nc3cc(Cl)c(Cl)cc3n2CC2CCCN3CCCCC23)cc1Cl (stereo not drawn)
Result: inactive

Task: Field: outcome | Entry: "N#Cc1nc(C#N)n(S(=O)(=O)c2ccccc2)c1NS(=O)(=O)c1ccccc1"
Result: inactive

Task: Field: outcome | Entry: "CCCSc1ccc2[nH]c(N3C(=O)/C(=C/c4ccc(SC)cc4)N=C3c3ccccc3)cc2c1"
Result: inactive

Task: Field: outcome | Entry: "C[N+](C)([O-])CCC=C1c2ccccc2CCc2ccccc21"
Result: inactive

Task: Field: outcome | Entry: "CC1(C)CC[C@]2(C(=O)O)CC[C@]3(C)[C@H](C(=O)C=C4[C@@]5(C)C=C(C#N)C(=O)C(C)(C)[C@@H]5CC[C@]43C)[C@@H]2C1"
Result: active

Task: Field: outcome | Entry: "CCOC(=O)c1c(N2CCCC2)[nH]c(=O)c(C(c2c(O)c(C(=O)OCC)c(N3CCCC3)[nH]c2=O)C(C)C)c1O"
Result: inactive

Task: Field: outcome | Entry: CCN(CC)c1ccc2c(c1)Oc1ccc(N(CC)CC)cc1C21Oc2ccccc2-c2c1c1ccccc1n2CC (stereo not drawn)
Result: inactive

Task: Field: outcome | Entry: "CCc1cccc(CC)c1NC1=CC(=O)C(=O)c2ccccc21"
Result: inactive

----------
HCT-15 data, read-out GI50

Task: Please provide the recorded GI50 for "O=C1c2ccccc2-c2cccc3ccc(Cc4ccc5ccccc5c4)c1c23" , tested on HCT-15.
Result: > 100 µM

Task: Please provide the recorded GI50 for Cc1ccc(C)c(NC2=NC(=O)C(CC(=O)Nc3ccc(Cl)cc3Cl)S2)c1 (stereo not given) , tested on HCT-15.
Result: > 100 µM

Task: Please provide the recorded GI50 for CC(C)(Cl)C(Br)CCC(C)(Br)C(Br)CBr (stereo not given) , tested on HCT-15.
Result: 17.1 µM

Task: Please provide the recorded GI50 for CC(=O)C1=C(C)N(c2ccc(C)cc2)C2(O)C3=C(C(=O)c4ccccc4C3=O)C(O)=CC12Cl (stereo not given) , tested on HCT-15.
Result: 19.8 µM

Task: Please provide the recorded GI50 for CC12CN(CC[N+](C)(C)C)CC1(C)C1CCC2O1 (stereo not given) , tested on HCT-15.
Result: > 100 µM

Task: Please provide the recorded GI50 for "N/C(=N/O)N/N=C\c1cc(Cl)cc(Cl)c1O" , tested on HCT-15.
Result: 2.02 µM

Task: Please provide the recorded GI50 for "COc1cc(OC)c(OC)cc1/C=C/c1cc[n+](C)c2ccccc12" , tested on HCT-15.
Result: > 100 µM

Task: Please provide the recorded GI50 for "COc1ccc2c(c1)c(=Cc1ccc(N(C)C)cc1)c1cc(-c3ccccc3)[n+](C)n12" , tested on HCT-15.
Result: 1.65 µM

Task: Please provide the recorded GI50 for "C/C(=N\n1c(Cc2ccccc2)n[nH]c1=O)c1ccc([N+](=O)[O-])cc1" , tested on HCT-15.
Result: > 100 µM

Task: Please provide the recorded GI50 for "Cc1cc(N(CCC#N)CCC#N)ccc1/C=C1N=C(/C=C\c2ccccc2)N(c2ccc(C(=O)O)cc2)C\1=O" , tested on HCT-15.
Result: > 100 µM
